# ASSAY_PROTOCOL: PK study of single ascending oral doses in healthy volunteers (Example 7)
# Format: in vivo, human
# STATED_CONDITIONS: male, human, plasma; single oral dose 800 mg, fasted, n = 12, Median (Min-Max)
# Procedure: This was randomized, open-label, 4-period, crossover PK study of single ascending oral doses of Hydronidone in healthy volunteers. Ascending single oral doses of 200 mg, 400 mg, 600 mg and 800 mg of Hydronidone were given to 12 eligible, healthy male Chinese subjects, 26-38 years of age, satisfying all inclusion and exclusion criteria, and randomly divided into four dose groups, 3 subjects per group, under fasted conditions. […]

COMPOUND | UNIT_DESCRIPTOR | Tmax
Cc1ccc(=O)n(-c2ccc(O)cc2)c1 [Hydronidone, N-(4-hydroxyphenyl)-5-Methyl-2-pyridone] | min | 40.2
